Molecular target: hMC5-R (Homo sapiens, UniProt P33032)
Construct: expressed in transfected cells; host or cells: HEK-293
Sequence (P33032 whole entry): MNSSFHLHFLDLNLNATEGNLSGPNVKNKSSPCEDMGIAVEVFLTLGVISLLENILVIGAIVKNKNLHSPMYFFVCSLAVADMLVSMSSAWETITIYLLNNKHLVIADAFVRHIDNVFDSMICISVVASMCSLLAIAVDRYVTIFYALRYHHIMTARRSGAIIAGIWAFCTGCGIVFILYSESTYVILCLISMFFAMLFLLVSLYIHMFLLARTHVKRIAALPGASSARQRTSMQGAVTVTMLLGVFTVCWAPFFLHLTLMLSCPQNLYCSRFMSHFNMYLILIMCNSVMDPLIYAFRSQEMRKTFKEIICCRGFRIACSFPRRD
Assay: Competitive binding assay: inhibition of 125I-NDP-α-MSH binding to HEK-293 membranes with cloned human receptor subtype 5
Settings: Table 6; 1 μM; mean of triplicate
Non-standard residues stand in square brackets, D forms with d. *: point of attachment. Tiq = 1,2,3,4-tetrahydroisoquinoline-1-carboxylic acid; Phenylacetyl(4-Ph) = O=C(Cc1ccc(-c2ccccc2)cc1)*; d(pGlu) = O=C1CC[C@H](C(=O)O)N1; code Z = not defined here; Nle = CCCC[C@H](N)C(=O)O
observation.type: % Inhibition of Binding hMC5-R (%)

Solved entries (count: 2):
Form field % Inhibition of Binding hMC5-R, entry Tiq-D-Phe-Arg-Cys-Trp-NH2 (Tiq-[dF]RCW-NH2; also: metal complex) : 56

The recorded % Inhibition of Binding hMC5-R for Ac-Nle-Ala-Arg-D-Phe-Arg-Cys-Trp-NH2 (Ac-[Nle]AR[dF]RCW-NH2; not fully specified; printed as Ac-Nle-Ala-Arg-D-Phe-Arg-Cys-Trp-NH2) is 59

P = 4′-Biphenylacetyl-D-Phe-Arg-Cys-Trp-NH2 ({Phenylacetyl(4-Ph)}-[dF]RCW-NH2; not fully specified; printed as 4′-Biphenylacetyl-D-Phe-Arg-Cys-Trp-NH2)
Q = Z-D-Pyr-D-Phe-Arg-Trp-Cys-NH2 ({code Z}-[d(pGlu)][dF]RWC-NH2; reading uncertain; also: metal complex, printed as Z-D-Pyr-D-Phe-Arg-Trp-Cys-NH2)
From the recorded data, which exceeds the other in % Inhibition of Binding hMC5-R: P or Q ? Select an item and report its label.
P

a = NH2(CH2)6CO-Ser(Bzl)-D-Nal 2′-Arg-Trp-Cys-NH2
b = Allo-Thr-D-Phe-Arg-Trp-Cys-NH2
Sorting ascending by % Inhibition of Binding hMC5-R, which comes first: a or b ? // output: label of the selected item
b

---

Molecular target: MC4-R (Homo sapiens, UniProt P32245)
Construct: expressed in transfected cells; host or cells: HEK-293
Sequence (P32245 whole entry): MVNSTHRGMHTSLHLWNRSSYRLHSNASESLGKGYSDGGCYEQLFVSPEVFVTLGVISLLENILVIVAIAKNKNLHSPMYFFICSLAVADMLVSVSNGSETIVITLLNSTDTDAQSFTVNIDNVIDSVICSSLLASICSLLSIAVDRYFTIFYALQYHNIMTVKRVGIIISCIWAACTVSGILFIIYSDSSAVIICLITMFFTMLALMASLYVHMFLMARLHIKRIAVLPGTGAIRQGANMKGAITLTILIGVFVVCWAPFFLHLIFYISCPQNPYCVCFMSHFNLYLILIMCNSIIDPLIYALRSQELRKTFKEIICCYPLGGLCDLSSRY
Assay: Competitive binding assay: inhibition of 125I-NDP-α-MSH binding to HEK-293 membranes with cloned human receptor subtype 4
Conditions: Table 6; 0.1 μM; mean of triplicate
observation.type: % Inhibition of Binding hMC4-R (%)

Looking up Heptanoyl-Ser(Bzl)-D-Phe(4′-Cl)-Arg-Tyr-Cys-NH2 , I found its % Inhibition of Binding hMC4-R recorded as 13

P = Heptanoyl-Ser(Bzl)-D-Phe(4′-Cl)-Arg-Phe-Cys-NH2
Q = Ac-Nle-Arg-Arg-D-Nal 2′-Cys-Trp-Lys-NH2
Which value of % Inhibition of Binding hMC4-R is greater, the one for P or the one for Q ? Mark your answer with the label of the selected entry.
Q

---

Target: hMC5-R (Homo sapiens, UniProt P33032)
Construct: expressed in transfected cells; host or cells: HEK-293
Assay: Competitive binding assay: inhibition of 125I-NDP-α-MSH binding to HEK-293 membranes with cloned human receptor subtype 5
Settings: Table 6; 1 μM; mean of triplicate
Non-standard residues stand in square brackets, D forms with d. No end group written: not given here. Ac6c = NC1(C(=O)O)CCCCC1
observation.type: % Inhibition of Binding hMC5-R (%)

# example entries with known answers
Lab note: measured % Inhibition of Binding hMC5-R of Aic-D-Phe-Arg-Trp-Cys-NH2 was 38

The substance Tic-D-Phe(3′-Cl)-Arg-Trp-Cys-NH2 showed % Inhibition of Binding hMC5-R equal to 76

Just so you know, measured % Inhibition of Binding hMC5-R for 1-amino-1-cyclohexane carboxyl-D-Phe-Arg-Trp-Cys-NH2 ([Ac6c][dF]RWC-NH2; N-terminus assumed; SMILES N=C(N)NCCC[C@H](NC(=O)[C@@H](Cc1ccccc1)NC(=O)C1(N)CCCCC1)C(=O)N[C@@H](Cc1c[nH]c2ccccc12)C(=O)N[C@@H](CS)C(N)=O) came out at 16

1 = D-Nal 1′-D-Phe-Arg-Cys-Trp-NH2
2 = Idc-D-Phe-Arg-Trp-Cys-NH2
3 = Amb-D-Phe-Arg-Cys-Trp-NH2
List from greatest to least % Inhibition of Binding hMC5-R. Please respond by ranking the labels in the order requested.
1, 3, 2

a = Ac-Ala-Ala-His-D-Phe-Arg-Cys-Trp-NH2 ({Ac-Ala-Ala-H2N}-[dF]RCW-NH2; not fully specified; printed as Ac-Ala-Ala-His-D-Phe-Arg-Cys-Trp-NH2)
b = Aic-D-Phe-Arg-Cys-Trp-NH2
Identify the entry with the larger % Inhibition of Binding hMC5-R. Options: a and b Please indicate the selected item by its label.
b
